# Experimental Details: Confirmation screen for delayed death inhibitors of the malarial parasite plastid, 96 hour incubation; further: nearly all actives have a fitted effect of over 60% in size
# Test Conditions: P. falciparum luciferase growth in erythrocytes; series mostly up to 28.7 µM
Among all 2,300 compounds or so, about 1,400 (61%) were called active. Roughly 29% stayed inconclusive and do not appear here. The call rests on the fitted dose curve; in most records, active means well fitted inhibition curve with a large enough effect; inconclusive means small, poorly fitted or top-dose-only effect, or effect the other way; inactive means no such curve, though single readings can be large or run the other way. The set was probably picked from earlier hits. The list shows a part of the results.
Use one of these outcomes when replying: active, inactive

input: For C#CCn1c(S(=O)(=O)Cc2ccc(F)cc2)nc(-c2ccccc2)c1-c1ccccc1 , which call appears in the assay record?
output: active

input: Now the compound Cc1c(/C=N/NC(=O)c2cccs2)c2ccccc2n1Cc1ccccc1Cl
output: active

input: Now the compound COc1ccc(-n2c(C)cc(C(=O)COC(=O)Cc3n[nH]c(=O)c4ccccc34)c2C)cc1
output: active

input: Now the compound Cc1ccc(Cl)cc1N1CCN(Cc2nc3c(c(=O)[nH]c(=O)n3C)n2CCc2ccccc2)CC1
output: active

input: Now the compound CCC1CCC(C(=O)NC(CCSC)C(=O)NCCN(CC(C)C)CC(C)C)CC1 (configuration not stated)
output: active

input: Now the compound CC(NC(=O)c1ccc([N+](=O)[O-])o1)C12CC3CC(CC(C3)C1)C2 (configuration not stated)
output: active

input: Now the compound CCOC(=O)Cn1c(S(=O)(=O)Cc2cccc(F)c2)nc(-c2ccccc2)c1-c1ccccc1
output: active

input: Now the compound CCn1c(/C=C/N(C(C)=O)c2ccccc2)[n+](CC)c2ccc(Cl)cc21
output: active

input: Now the compound CSc1ccc(CNc2cccc3ccccc23)cc1
output: inactive

input: Now the compound Cc1ccc(Cl)cc1Nc1nc(-c2sc(NC(=O)C(C)(C)C)nc2C)cs1
output: active

input: Now the compound COc1cccc(CNc2cc(C)ccn2)c1O
output: active

input: Now the compound CCC1S/C(=N/N=C/c2ccco2)N(Cc2ccccc2C)C1=O (configuration not stated)
output: active

input: Now the compound CCOC(=O)N1CCN(CC(=O)c2ccc(O)cc2O)CC1
output: active

input: Now the compound C=CCn1c(C)cc(C2=NNC(=NCc3ccccc3)SC2)c1C
output: active

input: Now the compound Cc1oc(/C=N/NS(=O)(=O)c2ccccc2)cc1Br
output: inactive

input: Now the compound CC(=O)N1CCSc2ccc(S(=O)(=O)Nc3ccc(C)cc3)cc21
output: active

input: Now the compound COc1ccc(C(=O)/C=C/c2ccc(OC)c(O)c2)c(F)c1
output: active

input: Now the compound COc1ccc(C(=O)/C=C/c2cccnc2)c(OC)c1
output: active

input: Now the compound C#CCn1c(S(=O)(=O)Cc2ccc(C)cc2)nc(-c2ccccc2)c1-c1ccccc1
output: active

input: Now the compound O=C(O)c1ccc(/C=N/NC(=O)c2ccc3c(c2)OCCO3)cc1
output: inactive

input: Now the compound Cc1ccc(S(=O)(=O)C2(C(=O)N3CCCCCC3)CC2)cc1
output: inactive

input: Now the compound N=c1c2c3c(sc2ncn1Cc1ccccc1)CCCC3
output: inactive

---

# Experimental Details: Confirmation screen for delayed death inhibitors of the malarial parasite plastid, 96 hour incubation; further: nearly all actives have a fitted effect of over 60% in size; further: potency means the concentration at half of the fitted maximal effect
# Test Conditions: P. falciparum luciferase growth in erythrocytes; series mostly up to 28.7 µM
The campaign covered roughly 2,300 compounds. About 1,400 (61%) were called active. Inconclusive results (about 29%) are left out. The set was probably picked from earlier hits. The list shows a part of the results.
Observation Type: Potency

input: Could you share which Potency value was measured for COc1ccc(C(=O)Nc2c(N)nc(SCC(=O)Nc3ccc(NC(C)=O)cc3)[nH]c2=O)cc1OC ?
output: 12.6 µM (active)

input: Now the compound Cc1ccc(CN(Cc2ccccn2)C(=O)Nc2ccc(C)c(C)c2)cc1
output: 15.8 µM (active)

input: Now the compound Cc1c(OC(C)C(=O)NCC2CCC(C(=O)O)CC2)ccc2c1oc(=O)c1ccccc12 (stereo not given)
output: 12.6 µM (active)

input: Now the compound Nc1nc(SCC(=O)NCC2CCCO2)[nH]c(=O)c1NC(=O)c1ccc(F)c(F)c1 (stereo not given)
output: 7.94 µM (active)

input: Now the compound Cc1c(Cc2ccccc2)c(=O)oc2cc(OC(C)C(=O)NCC3CCC(C(=O)O)CC3)c(Cl)cc12 (stereo not given)
output: 10 µM (active)

---

# Experimental Details: Confirmation screen for delayed death inhibitors of the malarial parasite plastid, 96 hour incubation; further: nearly all actives have a fitted effect of over 60% in size
# Test Conditions: P. falciparum luciferase growth in erythrocytes; series mostly up to 28.7 µM
About 1,400 (61%) of roughly 2,300 compounds were called active. About 29% were inconclusive and are not listed. The call rests on the fitted dose curve; in most records, active means well fitted inhibition curve with a large enough effect; inconclusive means small, poorly fitted or top-dose-only effect, or effect the other way; inactive means no such curve, though single readings can be large or run the other way. So high a share suggests a set chosen from earlier hits. The list shows a part of the results.
Use one of these outcomes when replying: y = active, n = inactive

input: For CCCCSc1nnc(-c2cc3c(C(F)(F)F)nn(C)c3s2)n1C , which call appears in the assay record?
output: y

input: Now the compound O=C(CSc1nc2nn(-c3ccccc3)c(=O)c-2c2n1CCCCC2)c1ccc(O)c(O)c1
output: y

input: Now the compound COc1ccc(NC(=O)CCCn2nc(C)c3c(C)n(-c4ccccc4)nc3c2=O)cc1
output: y

input: Now the compound CCc1nn2c(=O)cc(COc3cccc(NC(=O)c4ccco4)c3)nc2s1
output: y

input: Now the compound Cc1cccc(-n2c(C)cc(/C=N\NC(=O)c3cccs3)c2C)c1
output: y

input: Now the compound CN(C)C1(CNC(=O)C2CCC(=O)N(Cc3ccc(Cl)cc3)C2)CCCCC1 (configuration not stated)
output: y

input: Now the compound CCc1ccc(/C=N/n2c(C)cc(C)c(C#N)c2=O)cc1
output: y

input: Now the compound C/C(=N/OCO/N=C(\C)c1ccccc1)c1ccccc1
output: n

input: Now the compound Cc1ncc(CO)c(/C=N/NC(=S)Nc2ccc(F)cc2)c1O
output: y

input: Now the compound CCOC(=O)c1c(NC(=O)CSc2ccccc2C(=O)O)sc(C)c1C
output: n

input: Now the compound COc1ccc(N2C(=O)C3C(C2=O)C(C(=O)c2ccc(Cl)cc2)N2CCCC32)cc1 (configuration not stated)
output: n

input: Now the compound Cc1cccc(NC(=O)COC(=O)c2cccc3c2C(=O)c2ccccc2C3=O)c1C
output: y

input: Now the compound CN(C)c1ccc(NC(=S)NC23CC4CC(CC(C4)C2)C3)cc1
output: y

input: Now the compound O=C(COc1ccc(Cl)cc1)NCc1nnc2c3ccccc3c(-c3ccccc3)nn12
output: y

input: Now the compound CCOc1ccccc1NC(=O)/C(C#N)=C/c1cccnc1
output: y

input: Now the compound CCCC(=O)N1CCN(c2ccc(NC(=O)c3ccc([N+](=O)[O-])o3)cc2Cl)CC1
output: y

input: Now the compound Cc1cc(NC(=O)COC(=O)c2ccccc2S(=O)(=O)N(C)c2ccccc2)no1
output: y

input: Now the compound COc1cc(/C=C2\COC/C(=C\c3ccc(O)c(OC)c3)C2=O)ccc1O
output: y

input: Now the compound O=C(NCc1ccccn1)c1cc(-c2ccc(-c3ccccc3)cc2)nc2ccccc12
output: y

input: Now the compound CCN(CC)CCNC(=O)c1ccc(NC(=O)c2ccccc2-c2ccc(C(F)(F)F)cc2)cc1
output: y

input: Now the compound S=C(Nc1ccccc1Cl)N(Cc1ccccc1)Cc1cccnc1
output: y

input: Now the compound COc1ccc(S(=O)(=O)N2CCC(C(=O)Nc3ccccc3N3CCCCC3)CC2)cc1OC
output: y

input: Now the compound NC1=NC[C@@H](Cc2ccc(O)cc2)N1CCc1cccc(F)c1
output: y

input: Now the compound COC(=O)c1ccc(Sc2nnnn2-c2ccccc2)c([N+](=O)[O-])c1
output: y

input: Now the compound CC1(C)N=C(N)N=C(N)N1c1ccc(OCCCOc2ccccc2)c(Cl)c1
output: y

input: Now the compound COc1ccc(CCNC(=O)C(=O)NCC2OCCN2S(=O)(=O)c2ccc3c(c2)OCCO3)cc1OC (configuration not stated)
output: y

input: Now the compound O=C(Nc1ccc(N2CCOCC2)c(Cl)c1)c1cc2ccccc2o1
output: y

input: Now the compound COc1ccc(C(=O)CC(SCC(NC(C)=O)C(=O)O)c2ccc(Cl)cc2)cc1OC (configuration not stated)
output: y

input: Now the compound CCOc1ccc2c(c1)sc(N)[n+]2Cc1cc(C)cc2cccnc12
output: y

input: Now the compound Cc1nnnn1/C(=C\c1ccccc1)C(=O)OCC(=O)N1CC2(C)CC1CC(C)(C)C2 (configuration not stated)
output: y

input: Now the compound COc1ccc(Cn2c(-c3ccc(Br)cc3)c[n+]3ccccc23)cc1
output: y

input: Now the compound Cc1cccc(Nc2nc3c(S(=O)(=O)c4ccccc4)nnn3c3ccccc23)c1C
output: y

input: Now the compound COc1ccc(CCNC(=O)C2CCN(S(=O)(=O)c3ccc(OC)c(OC)c3)CC2)cc1OC
output: y

input: Now the compound COc1ccc(Cl)cc1NC(=O)C1Cc2cc(S(=O)(=O)N3CCCC3)ccc2N1C(C)=O (configuration not stated)
output: y

input: Now the compound CCOc1ccccc1C(=O)NCC(=O)NCCc1ccc(S(N)(=O)=O)cc1
output: n

input: Now the compound CCC(=O)Nc1ccc2c(c1)ncn2-c1ccccc1OC
output: y

input: Now the compound Cc1cccc(C)c1NC(=O)CCCn1nc(C)c2c(C)n(-c3ccccc3)nc2c1=O
output: y

input: Now the compound O=C(NCCCn1ccnc1)C(=O)NCC1OCCN1S(=O)(=O)c1ccc(F)cc1 (configuration not stated)
output: n

input: Now the compound O=C(/C=C/Sc1ccccc1)c1ccccc1
output: y

input: Now the compound C/C(=N\NC(=S)Nc1cccc(C)c1)c1ccccc1
output: y

input: Now the compound CCOC(=O)c1c(NC(=O)CSc2c[nH]c3ccccc23)sc2c1CCCC2
output: y

input: Now the compound COc1cc(/C=C2\CC(C(C)(C)C)C/C(=C\c3cc(OC)c(OC)c(OC)c3)C2=O)cc(OC)c1OC (configuration not stated)
output: y
